# assay.system: UniProt P51955
# Sequence (P51955 whole entry): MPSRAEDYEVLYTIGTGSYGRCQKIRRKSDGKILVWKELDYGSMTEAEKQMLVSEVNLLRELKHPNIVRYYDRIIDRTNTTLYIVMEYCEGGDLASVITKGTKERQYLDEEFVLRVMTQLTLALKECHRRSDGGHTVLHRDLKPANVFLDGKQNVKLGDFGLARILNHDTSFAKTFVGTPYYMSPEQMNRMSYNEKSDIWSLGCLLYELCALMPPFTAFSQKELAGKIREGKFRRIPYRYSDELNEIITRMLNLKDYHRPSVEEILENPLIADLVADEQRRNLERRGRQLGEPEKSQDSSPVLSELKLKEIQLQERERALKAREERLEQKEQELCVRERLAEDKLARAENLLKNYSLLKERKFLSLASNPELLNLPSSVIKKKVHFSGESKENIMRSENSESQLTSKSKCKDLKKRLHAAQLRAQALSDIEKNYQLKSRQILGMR
# assay.method.text: KinaseProfiler off-target kinase profiling
# Type: biochemical
# study.conditions: 10 μM, ATP near Km
Attribute: Avg. POC
# unit: POC | format: bare number

> print(dat)
                                   compound  readout.units  reading
1  COCc1ccc2c(c1)C(NC(=O)Nc1c(C)c(-c3cnn(C)c3)nn1-c1ccccc1)COC2 (stereo not shown) [Example 32]            POC      108

// query Please respond with reported Avg. POC (system UniProt P51955) for Cc1c(-c2ccc(=O)n(C)c2)nn(-c2ccccc2)c1NC(=O)NC1CN(CC(F)(F)F)Cc2ccccc21 (stereo not shown) [Example 26] .
// result 100.5

// query Give reported Avg. POC for Cc1c(-c2cnn(C)c2)nn(-c2ccccc2)c1NC(=O)N[C@H]1CCCc2ccccc21 [Example 2] (UniProt P51955)
// result 104

// query With UniProt P51955 as the test system, provide measured Avg. POC for this compound: Cc1c(-c2cnn(C)c2)nn(-c2ccccc2)c1NC(=O)NC1CCOc2cc(F)ccc21 (stereo not shown) [Example 12]
// result 91.5

---

# assay.system: UniProtKB Q9Y243
# Sequence (Q9Y243 whole entry): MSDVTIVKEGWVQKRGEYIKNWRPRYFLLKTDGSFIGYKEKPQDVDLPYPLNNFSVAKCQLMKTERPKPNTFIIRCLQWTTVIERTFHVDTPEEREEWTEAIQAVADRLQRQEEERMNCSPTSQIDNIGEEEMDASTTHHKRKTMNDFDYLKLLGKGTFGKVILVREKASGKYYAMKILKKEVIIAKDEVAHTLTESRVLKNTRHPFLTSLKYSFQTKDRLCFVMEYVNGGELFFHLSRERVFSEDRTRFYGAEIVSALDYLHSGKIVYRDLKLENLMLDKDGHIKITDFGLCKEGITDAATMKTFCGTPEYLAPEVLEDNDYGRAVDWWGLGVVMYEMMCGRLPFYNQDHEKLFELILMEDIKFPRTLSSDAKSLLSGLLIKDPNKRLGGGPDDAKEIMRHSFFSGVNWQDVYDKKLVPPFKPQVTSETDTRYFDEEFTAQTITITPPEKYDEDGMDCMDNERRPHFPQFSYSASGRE
# assay.method.text: KinaseProfiler off-target kinase profiling
# Assay type: biochemical
# study.conditions: 10 μM, ATP near Km
observable: Avg. POC (POC)
Please give a number only; it is taken to be in POC.

> print(dat)
                                   compound  observable  reading
1  Cc1c(-c2ccc(=O)n(C)c2)nn(-c2ccccc2)c1NC(=O)NC1CN(CC(F)(F)F)Cc2ccccc21 (stereo not shown)    Avg. POC       96
2  Cc1c(-c2cnn(C)c2)nn(-c2ccccc2)c1NC(=O)N[C@H]1CCCc2ccccc21    Avg. POC    116.5
3  Cc1c(-c2cnn(C)c2)nn(-c2ccccc2)c1NC(=O)NC1CCOc2cc(F)ccc21 (stereo not shown)    Avg. POC       94

// query Tell us which Avg. POC value is on record for COCc1ccc2c(c1)C(NC(=O)Nc1c(C)c(-c3cnn(C)c3)nn1-c1ccccc1)COC2 (stereo not shown)
// result 77.5

---

# assay.system: ALK4 (Homo sapiens (Human))
# Sequence (P36896 24-505): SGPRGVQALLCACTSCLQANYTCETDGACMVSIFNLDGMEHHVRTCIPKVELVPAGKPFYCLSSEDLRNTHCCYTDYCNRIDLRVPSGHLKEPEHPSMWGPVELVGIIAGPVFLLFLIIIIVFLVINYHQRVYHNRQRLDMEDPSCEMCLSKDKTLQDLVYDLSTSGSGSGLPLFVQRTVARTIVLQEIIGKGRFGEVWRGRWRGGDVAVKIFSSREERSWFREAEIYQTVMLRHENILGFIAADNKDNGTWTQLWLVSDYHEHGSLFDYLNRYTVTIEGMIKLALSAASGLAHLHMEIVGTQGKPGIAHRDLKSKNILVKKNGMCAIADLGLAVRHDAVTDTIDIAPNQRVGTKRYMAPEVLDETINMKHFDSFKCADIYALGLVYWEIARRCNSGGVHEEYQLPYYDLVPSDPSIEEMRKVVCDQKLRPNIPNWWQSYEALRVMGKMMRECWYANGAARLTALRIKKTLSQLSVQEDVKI
# assay.method.text: KinaseProfiler off-target kinase profiling
# Type: biochemical
# study.conditions: 10 μM, ATP near Km
observable: Avg. POC (POC)
Field format: number, assumed POC, no unit text.

> print(dat)
                                   molecule  observable  reading
1  Cc1c(-c2ccc(=O)n(C)c2)nn(-c2ccccc2)c1NC(=O)NC1CN(CC(F)(F)F)Cc2ccccc21 (stereo not shown) [Example 26]    Avg. POC    102.5
2  Cc1c(-c2cnn(C)c2)nn(-c2ccccc2)c1NC(=O)NC1CCOc2cc(F)ccc21 (stereo not shown) [Example 12]    Avg. POC      101
3  Cc1c(-c2cnn(C)c2)nn(-c2ccccc2)c1NC(=O)N[C@H]1CCCc2ccccc21 [Example 2]    Avg. POC     98.5

Field: next molecule
// query Supply reported Avg. POC belonging to this molecule: COCc1ccc2c(c1)C(NC(=O)Nc1c(C)c(-c3cnn(C)c3)nn1-c1ccccc1)COC2 (stereo not shown) [Example 32]
// result 100.5

Data origin: patent US10351575B2
